Assayed Target: T1, tissue kallikrein KLK13 (R&D Systems) (human, UniProt Q9UKR3 17-277, limits assumed)
T1 sequence (looked up): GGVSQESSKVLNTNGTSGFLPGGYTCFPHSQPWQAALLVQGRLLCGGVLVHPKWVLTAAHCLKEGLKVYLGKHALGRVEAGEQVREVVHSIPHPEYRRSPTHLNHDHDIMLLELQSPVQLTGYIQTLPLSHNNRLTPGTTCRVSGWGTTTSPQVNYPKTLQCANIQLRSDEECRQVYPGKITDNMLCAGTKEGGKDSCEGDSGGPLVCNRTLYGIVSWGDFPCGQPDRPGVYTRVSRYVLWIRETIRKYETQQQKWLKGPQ
Procedure Summary: cell-based or functional assay
Bridge positions count the residues as written; N and C are the ends. Square brackets hold non-standard residues; d marks the D form. Ends that are not written are not given here. * marks the point of attachment. mXylyl = xylyl linker from dibromoxylene joining the two cysteines; Phg = N[C@H](C(=O)O)c1ccccc1; Tle = CC(C)(C)[C@H](N)C(=O)O; Heptanoyl = CCCCCCC(=O)*
Assay Readout: KLK13 IC50

Solved entries (count: 2):
| Binder | Assay Readout | Result |
| --- | --- | --- |
| Heptanoyl-CESICRV-NH2 (linker 1-5 via mXylyl) [R2041] | KLK13 IC50 | > 100 µM |
| Ac-CAS[Phg]CR[Tle]-NH2 (linker 1-5 via mXylyl) [R2036] | KLK13 IC50 | > 100 µM |

For MCNYWSPWTECSA-NH2 (cysteine pairing not given here) [R2104] the binder record lists KLK13 IC50 as > 100 µM
